system: Staphylococcus aureus; test: Antimicrobial activity against Staphylococcus aureus assessed as zone of inhibition at 250 ug/ml; assay type: functional; conditions: read-out: IZ
Parameter: zone of inhibition at 250 µg/mL. Scope: all listed entries.
VALUE TYPE: zone of inhibition at 250 µg/mL

INSERT INTO results (compound, value_type, result) VALUES
  ('Oc1ccc(-c2nnnn2-c2nc3ccccc3s2)cc1O', 'zone of inhibition at 250 µg/mL', '16 to 26 mm'),
  ('Oc1cccc(-c2nnnn2-c2nc3ccccc3s2)c1', 'zone of inhibition at 250 µg/mL', '16 to 26 mm'),
  ('CN(C)c1ccc(-c2nnnn2-c2nc3ccccc3s2)cc1', 'zone of inhibition at 250 µg/mL', '16 to 26 mm'),
  ('CC(=O)N1N=C(Cn2cc(-c3nn(-c4ccncc4)cc3-c3nnnn3-c3ccc(Br)cc3)c3cc(Cl)ccc32)OC1(C)c1ccc(C(F)(F)F)cc1 (centres undefined)', 'zone of inhibition at 250 µg/mL', '8 to 20 mm'),
  ('COc1cc(-c2nnnn2-c2nc3ccccc3s2)cc(OC)c1OC', 'zone of inhibition at 250 µg/mL', '16 to 26 mm'),
  ('CC(=O)N1N=C(Cn2cc(-c3nn(-c4ccncc4)cc3-c3nnnn3-c3ccc(C)cc3)c3cc(Cl)ccc32)OC1(C)c1ccc(C(F)(F)F)cc1 (centres undefined)', 'zone of inhibition at 250 µg/mL', '8 to 20 mm'),
  ('CC(=O)N1N=C(Cn2cc(-c3nn(-c4ccncc4)cc3-c3nnnn3-c3ccccc3)c3cc(Cl)ccc32)OC1(C)c1ccc(C(F)(F)F)cc1 (centres undefined)', 'zone of inhibition at 250 µg/mL', '8 to 20 mm'),
  ('O=[N+]([O-])c1cccc(-c2nnnn2-c2nc3ccccc3s2)c1', 'zone of inhibition at 250 µg/mL', '16 to 26 mm'),
  ('Clc1ccc(-c2nnnn2-c2nc3ccccc3s2)cc1', 'zone of inhibition at 250 µg/mL', '16 to 26 mm'),
  ('CC1(C)S[C@@H]2[C@H](NC(=O)[C@H](N)c3ccc(O)cc3)C(=O)N2[C@H]1C(=O)O', 'zone of inhibition at 250 µg/mL', '21 to 27 mm'),
  ('COc1ccc(-n2nnnc2-c2cn(-c3ccncc3)nc2-c2cn(CC3=NN(C(C)=O)C(C)(c4ccc(C(F)(F)F)cc4)O3)c3ccc(Cl)cc23)cc1 (centres undefined)', 'zone of inhibition at 250 µg/mL', '8 to 20 mm'),
  ('c1ccc(-c2nnnn2-c2nc3ccccc3s2)cc1', 'zone of inhibition at 250 µg/mL', '16 to 26 mm'),
  ('Cc1ccc(-c2nnnn2-c2nc3ccccc3s2)cc1', 'zone of inhibition at 250 µg/mL', '16 to 26 mm'),
  ('CC(=O)N1N=C(Cn2cc(-c3nn(-c4ccncc4)cc3-c3nnnn3-c3ccc(Cl)cc3)c3cc(Cl)ccc32)OC1(C)c1ccc(C(F)(F)F)cc1 (centres undefined)', 'zone of inhibition at 250 µg/mL', '8 to 20 mm'),
  ('O=[N+]([O-])c1ccc(-c2nnnn2-c2nc3ccccc3s2)cc1', 'zone of inhibition at 250 µg/mL', '16 to 26 mm'),
  ('Oc1ccc(-c2nnnn2-c2nc3ccccc3s2)cc1', 'zone of inhibition at 250 µg/mL', '16 to 26 mm'),
  ('CC(=O)N1CCN(c2ccc(OCC3COC(Cn4ccnc4)(c4ccc(Cl)cc4Cl)O3)cc2)CC1 (centres undefined)', 'zone of inhibition at 250 µg/mL', '23 to 26 mm'),
  ('CC(=O)N1N=C(Cn2cc(-c3nn(-c4ccncc4)cc3-c3nnnn3-c3ccc(C(F)(F)F)cc3)c3cc(Cl)ccc32)OC1(C)c1ccc(C(F)(F)F)cc1 (centres undefined)', 'zone of inhibition at 250 µg/mL', '8 to 20 mm'),
  ('CC(=O)N1N=C(Cn2cc(-c3nn(-c4ccncc4)cc3-c3nnnn3-c3ccc([N+](=O)[O-])cc3)c3cc(Cl)ccc32)OC1(C)c1ccc(C(F)(F)F)cc1 (centres undefined)', 'zone of inhibition at 250 µg/mL', '8 to 20 mm');
